pIC50 values recorded for Ribosomal protein S6 kinase alpha-3 (Homo sapiens, UniProt P51812)
pIC50: −log10 of the molar value.
endpoint-name: pIC50

| smiles-representation | endpoint-name | recorded-result |
| --- | --- | --- |
| Oc1c(F)cc(-c2cnccc2-c2ccc(N3CCOCC3)cc2)cc1F | pIC50 | 8.40 |
| Oc1c(F)cc(-c2cnccc2C2CCNCC2)cc1F | pIC50 | 5.68 |
| Oc1c(F)cc(-c2cnccc2-c2cccc(N3CCOCC3)c2)cc1F | pIC50 | 7.74 |
| Cc1ccc(-c2nc(N)ncc2-c2cc(F)c(O)c(F)c2)cc1 | pIC50 | 8.00 |
| Oc1ccc(-c2cn[nH]c2-c2cc(F)c(O)c(F)c2)cc1 | pIC50 | 8.22 |
| Oc1ccc(-c2ccncc2-c2ccc(O)cc2)cc1 | pIC50 | 6.74 |
| Oc1ccc(-c2cn[nH]c2-c2ccccc2)cc1 | pIC50 | 5.60 |
| Oc1ccc(-c2[nH]ncc2-c2ccccc2)cc1 | pIC50 | 6.82 |
| Cc1cccc(-c2ccncc2-c2cc(F)c(O)c(F)c2)c1 | pIC50 | 7.49 |
| Cc1ccc(-c2nc(NC(C)C)ncc2-c2cc(F)c(O)c(F)c2)cc1 | pIC50 | 7.64 |
| CC(C)c1ccncc1-c1cc(F)c(O)c(F)c1 | pIC50 | 6.11 |
| Oc1c(Cl)cc(-c2cnccc2-c2ccc(F)cc2)cc1Cl | pIC50 | 5.32 |
| COc1ccc(-c2ccncc2-c2cc(F)c(O)c(F)c2)cn1 | pIC50 | 7.10 |

====

procedure-text: Volume of distribution at steady state in iv dosed Sprague-Dawley rat
Assay type: ADME, organism-based
measurement-setup: in vivo, read-out: Vdss

| smiles-representation | unit-string | Vd |
| --- | --- | --- |
| CN1CCN(c2ccc(-c3ccncc3-c3cc(F)c(O)c(F)c3)cc2)CC1 | L/kg | 1.6 |

====

assay-system: Ribosomal protein S6 kinase alpha-3 (Mus musculus)
procedure-text: Inhibition of RSK2 in mouse BAF cells expressing activated FGFR assessed as reduction of YB1 phosphorylation at Ser102 by electochemiluminescence assay
pEC50: −log10 of the molar value.
endpoint-name: pEC50

| smiles-representation | relation-symbol | recorded-result |
| --- | --- | --- |
| Oc1ccc(-c2ccncc2-c2ccc(O)cc2)cc1 | = | 5.03 |
| Oc1c(Cl)cc(-c2cnccc2-c2ccc(F)cc2)cc1Cl | < | 4.70 |
| Oc1ccc(-c2[nH]ncc2-c2ccccc2)cc1 | < | 4.70 |
| CC(C)CCN1c2nc(Nc3cc(F)c(O)c(F)c3)ncc2N(C)C(=O)[C@H]1C | = | 6.30 |
| Oc1c(F)cc(-c2cnccc2-c2cccc(-c3cn[nH]c3)c2)cc1F | = | 5.96 |
| Oc1c(F)cc(-c2cnccc2-c2ccc(N3CCNCC3)cc2)cc1F | = | 6.85 |

====

assay-system: Ribosomal protein S6 kinase alpha-3 (Mus musculus, UniProt P18654)
Sequence (P18654 whole entry): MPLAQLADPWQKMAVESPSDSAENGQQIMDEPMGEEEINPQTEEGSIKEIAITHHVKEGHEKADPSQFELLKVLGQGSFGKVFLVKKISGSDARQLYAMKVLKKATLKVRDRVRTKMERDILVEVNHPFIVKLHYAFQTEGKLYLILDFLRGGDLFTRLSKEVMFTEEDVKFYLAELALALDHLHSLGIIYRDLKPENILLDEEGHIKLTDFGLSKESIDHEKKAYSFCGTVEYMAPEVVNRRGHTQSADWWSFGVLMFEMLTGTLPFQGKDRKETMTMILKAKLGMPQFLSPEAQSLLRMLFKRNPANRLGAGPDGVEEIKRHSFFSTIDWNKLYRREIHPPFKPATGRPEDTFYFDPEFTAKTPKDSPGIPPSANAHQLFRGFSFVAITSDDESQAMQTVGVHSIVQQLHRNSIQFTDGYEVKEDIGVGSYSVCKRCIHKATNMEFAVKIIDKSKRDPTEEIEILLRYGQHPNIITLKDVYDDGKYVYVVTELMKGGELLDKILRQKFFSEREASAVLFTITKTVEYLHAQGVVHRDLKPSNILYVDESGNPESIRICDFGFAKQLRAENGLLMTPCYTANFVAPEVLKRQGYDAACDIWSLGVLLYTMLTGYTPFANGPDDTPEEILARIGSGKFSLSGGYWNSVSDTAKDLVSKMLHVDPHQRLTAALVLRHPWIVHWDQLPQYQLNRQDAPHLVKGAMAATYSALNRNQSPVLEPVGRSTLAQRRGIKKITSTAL
procedure-text: Inhibition of RSK2 in mouse BAF cells expressing activated FGFR assessed as reduction of YB1 phosphorylation at Ser102 by electochemiluminescence assay
One threshold, 2000 nM, splits the recorded EC50 values: lower ones are TRUE, equal or higher ones are FALSE.

| smiles-representation | answer-label |
| --- | --- |
| CC(C)Nc1ncc(-c2cc(F)c(O)c(F)c2)c(-c2ccc(N3CCN(C)CC3)cc2)n1 | TRUE |
| CNC(=O)c1ccc(-c2ccncc2-c2cc(F)c(O)c(F)c2)cc1 | FALSE |
| Oc1ccc(-c2cn[nH]c2-c2ccc(O)cc2)cc1 | FALSE |
| Oc1c(F)cc(-c2cnccc2-c2ccccc2)cc1F | FALSE |
| Oc1ccc(-c2cn[nH]c2-c2cc(F)c(O)c(F)c2)cc1 | TRUE |
| Cc1ccc(-c2nc(NC(C)C)ncc2-c2cc(F)c(O)c(F)c2)cc1 | TRUE |
| CN1CCN(c2cccc(-c3ccncc3-c3cc(F)c(O)c(F)c3)c2)CC1 | TRUE |
| Cc1ccc(-c2nc(N)ncc2-c2cc(F)c(O)c(F)c2)cc1 | TRUE |
| NCCOc1cccc(-c2ccncc2-c2cc(F)c(O)c(F)c2)c1 | TRUE |
| Cc1ccc(-c2ccncc2-c2cc(F)c(O)c(F)c2)cc1 | TRUE |
| CC(C)CNc1cc(-c2ccc(N3CCN(C)CC3)cc2)c(-c2cc(F)c(O)c(F)c2)cn1 | FALSE |
| Oc1c(F)cc(-c2cnccc2C2CCOCC2)cc1F | FALSE |
| Oc1ccc(-c2cn[nH]c2-c2ccccc2)cc1 | FALSE |
| COc1cccc(-c2ccncc2-c2cc(F)c(O)c(F)c2)c1 | FALSE |
| Nc1n[nH]c(-c2ccc(O)cc2)c1-c1ccccc1 | FALSE |
| Oc1c(F)cc(-c2cnccc2-c2ccc(F)cc2)cc1F | FALSE |
| CN1CCN(c2ccc(-c3cc(N)ncc3-c3cc(F)c(O)c(F)c3)cc2)CC1 | TRUE |
| Cc1cccc(-c2ccncc2-c2cc(F)c(O)c(F)c2)c1 | FALSE |

====

procedure-text: Clearance in iv dosed Sprague-Dawley rat
Format: ADME, organism-based
measurement-setup: in vivo

| smiles-representation | clearance |
| --- | --- |
| CN1CCN(c2ccc(-c3ccncc3-c3cc(F)c(O)c(F)c3)cc2)CC1 | 166 mL/min/kg |

====

procedure-text: Plasma half life in iv dosed Sprague-Dawley rat
Format: ADME, organism-based
endpoint-name: half-life (min)

| smiles-representation | endpoint-name | unit-string | recorded-result |
| --- | --- | --- | --- |
| CN1CCN(c2ccc(-c3ccncc3-c3cc(F)c(O)c(F)c3)cc2)CC1 | half-life | min | 13 |

====

assay-system: UniProt:P18654
procedure-text: Inhibition of RSK2 in mouse BAF cells expressing activated FGFR assessed as reduction of YB1 phosphorylation at Ser102 by electochemiluminescence assay
pEC50: −log10 of the molar value.
Reported pEC50 values are given for each entry in this list.

| smiles-representation | relation-symbol | pEC50 |
| --- | --- | --- |
| Oc1ccc(-c2ccncc2-c2cc(F)c(O)c(F)c2)cc1 | = | 5.19 |
| COc1ccc(-c2ccncc2-c2cc(F)c(O)c(F)c2)cc1 | = | 5.96 |
| COc1ccc(-c2ccncc2-c2cc(F)c(O)c(F)c2)cn1 | = | 5.28 |
| Oc1c(F)cc(-c2cnccc2-c2cccc(N3CCOCC3)c2)cc1F | = | 5.64 |
| CNc1ncc(-c2cc(F)c(O)c(F)c2)c(-c2ccc(C)cc2)n1 | = | 6.16 |
| CNc1cc(-c2ccc(N3CCN(C)CC3)cc2)c(-c2cc(F)c(O)c(F)c2)cn1 | = | 6.24 |
| CC(C)c1ccncc1-c1cc(F)c(O)c(F)c1 | < | 4.70 |
| Oc1c(F)cc(-c2cnccc2C2CCNCC2)cc1F | < | 4.70 |
| CN1CCN(c2ccc(-c3ccncc3-c3cc(F)c(O)c(F)c3)cc2)CC1 | = | 6.47 |
| Cc1ccc(Nc2cc(-c3ccc(N4CCN(C)CC4)cc3)c(-c3cc(F)c(O)c(F)c3)cn2)cc1 | = | 6.16 |
| Oc1c(F)cc(-c2cnccc2-c2ccc(N3CCOCC3)cc2)cc1F | = | 6.68 |

The reported numbers originate from ChEMBL document CHEMBL3603810.
